Numbers sourced from ChEMBL document CHEMBL1961873.

# TESTED SYSTEM: Tyrosine-protein kinase ABL1 (Homo sapiens)
# CONDITION INFO: at 0.1 µM
# Description: GSK_PKIS: ABL1 mean inhibition at 0.1 uM [Nanosyn]
Label Not satisfied if inhibition falls below 8%; label Satisfied in every other case.

Sample answers from the record:
> print(dat)
                            chemical.smiles  category.label
1  COc1cc2ncn(-c3cc(OCc4ccccc4C(F)(F)F)c(C(C)=O)s3)c2cc1OC   Not satisfied
2  COc1cc2ncn(-c3cc(OCCc4ccccc4)c(C(N)=O)s3)c2cc1OC   Not satisfied
3    O=C(Nc1n[nH]c2cc(-c3ccccc3)ccc12)C1CC1       Satisfied
4  C[C@@H](Oc1cc(-n2cnc3ccc(OC4CCN(C)CC4)cc32)sc1C(N)=O)c1ccccc1Cl   Not satisfied

Given COc1cc(Nc2ncc(-c3ccccc3)o2)cc(OC)c1OC , state whether its inhibition is at least 8%.
Not satisfied

* * *

What inhibition was measured for each of the following?
# TESTED SYSTEM: Serine/threonine-protein kinase Nek7 (Homo sapiens);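 further: figures are averaged percent inhibition of NEK7 kinase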
# CONDITION INFO: at 0.1 µM
Write the figure, then the unit, nothing else.

In the examples that follow, each entry is paired with its recorded inhibition.
> print(dat)
                            chemical.smiles  observed.measurement
1  Cc1nnc(-c2ccc(C)c(-c3ccc(C(=O)NCc4ccc(Cl)cc4)cc3)c2)o1                 5.57%
2  COc1cc2ncn(-c3cc(OCc4ccccc4C(F)(F)F)c(C(C)=O)s3)c2cc1OC                  1.7%
3  CS(=O)(=O)CCNCc1cc(-c2cc3c(Nc4ccc(OCc5cccc(F)c5)c(Cl)c4)ncnc3s2)cs1                 4.02%
4              CCc1nccc2c1nc(-c1nonc1N)n2CC                 2.57%
5     NC(=O)c1cc(-c2ccncc2)cc(-c2ccccc2)c1N                 4.53%
6  O=C(NCC1CC1)c1ccc(-c2cccc(C(=O)NC3CC3)c2)cc1                 3.35%
7  CCC(=O)Nc1ccc(C)c(-c2ccc(C(=O)NCC3CC3)cc2)c1                 3.13%
8     O=C(Nc1n[nH]c2nc(-c3ccco3)ccc12)C1CC1                 2.23%
9  COc1ccc2ncn(-c3cc(O[C@H](C)c4ccccc4Cl)c(C(N)=O)s3)c2c1                 3.12%

Now for the compound whose inhibition we want.
Look up inhibition for this compound: CCc1ccc(Oc2nccc(-c3c(-c4ccc(F)cc4)ncn3C3CCNCC3)n2)cc1
2.65%

* * *

What inhibition was measured for each of the following?
# TESTED SYSTEM: Interleukin-1 receptor-associated kinase 4 (Homo sapiens);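 further: reported figure is the mean inhibition of IRAK4 activity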
# Sequence (whole entry): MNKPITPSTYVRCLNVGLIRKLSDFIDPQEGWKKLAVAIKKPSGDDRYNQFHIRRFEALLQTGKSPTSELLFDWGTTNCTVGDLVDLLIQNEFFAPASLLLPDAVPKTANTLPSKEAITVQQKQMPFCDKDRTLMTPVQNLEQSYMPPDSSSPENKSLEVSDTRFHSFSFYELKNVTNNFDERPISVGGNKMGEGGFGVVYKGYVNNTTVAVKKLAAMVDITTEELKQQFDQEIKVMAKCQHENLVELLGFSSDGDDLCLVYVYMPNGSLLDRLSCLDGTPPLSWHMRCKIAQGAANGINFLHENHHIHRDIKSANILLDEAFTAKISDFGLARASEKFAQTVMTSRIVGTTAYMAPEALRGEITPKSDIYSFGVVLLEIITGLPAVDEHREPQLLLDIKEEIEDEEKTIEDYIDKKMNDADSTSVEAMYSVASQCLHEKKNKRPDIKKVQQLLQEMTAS
# CONDITION INFO: at 0.1 µM
Give bare numbers, in %.

In the examples that follow, each entry is paired with its recorded inhibition.
> print(dat)
                            chemical.smiles  measurement.name  unit.abbrev  observed.measurement
1        CNC(=O)c1cncc(/C=C/c2c(C)cccc2C)c1        inhibition            %                 -1.78
2       Fc1ccc(-c2c(-c3ccncc3)nc3n2CCS3)cc1        inhibition            %                  1.96
3  CN(C)CCOc1ccc(-c2cc(-c3ccc4c(c3)CCC4=NO)c(-c3ccncc3)o2)cc1        inhibition            %                 -0.42
4     NCc1ccc(-n2c(-c3nonc3N)nc3cnccc32)cc1        inhibition            %                 -0.81

Now for the compound whose inhibition we want.
Look up inhibition for this compound: CN1CCN(CCCNc2nc3ccc(Oc4ccc(NC(=O)Nc5cc(C(F)(F)F)ccc5F)cc4)cc3[nH]2)CC1
-3.98

* * *

# TESTED SYSTEM: Serine/threonine-protein kinase PLK1 (Homo sapiens);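 further: reported values are mean PLK1 inhibition, measured as part of the GSK PKIS profiling set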
# CONDITION INFO: at 0.1 µM
MEASUREMENT NAME: inhibition (%)
Give bare numbers, in %.

> print(dat)
                             chemical.smiles                             tested.system  measurement.name  unit.abbrev  observed.measurement
 1  COc1cccc(/C=N/Nc2ncnc3c2cnn3-c2cccc(OC)c2)c1  Serine/threonine-protein kinase PLK1 (Homo sapiens)        inhibition            %                   5.9
 2  COc1ccc(-c2ccc3c(NC(=O)C4CC4)n[nH]c3n2)cc1  Serine/threonine-protein kinase PLK1 (Homo sapiens)        inhibition            %                   3.2
 3       Fc1ccc(-c2c(-c3ccncc3)nc3n2CCS3)cc1  Serine/threonine-protein kinase PLK1 (Homo sapiens)        inhibition            %                  2.99
 4        CNC(=O)c1cncc(/C=C/c2c(C)cccc2C)c1  Serine/threonine-protein kinase PLK1 (Homo sapiens)        inhibition            %                  1.18
 5     COc1cc(Nc2ncc(-c3ccccc3)o2)cc(OC)c1OC  Serine/threonine-protein kinase PLK1 (Homo sapiens)        inhibition            %                 -0.55
 6  COc1ccc(C2=C(N3CCc4ccccc43)C(=O)NC2=O)cc1  Serine/threonine-protein kinase PLK1 (Homo sapiens)        inhibition            %                  4.84
 7  COc1cccc(-n2cnc3c(N/N=C/c4ccncc4)ncnc32)c1  Serine/threonine-protein kinase PLK1 (Homo sapiens)        inhibition            %                  -1.9
 8  N#Cc1ccc(Oc2nccc(-c3c(-c4ccc(F)cc4)ncn3C3CCNCC3)n2)cc1  Serine/threonine-protein kinase PLK1 (Homo sapiens)        inhibition            %                   4.8
 9  Cc1ccc(NC(=O)c2ccoc2)cc1-c1ccc(C(=O)NCC2CC2)cc1  Serine/threonine-protein kinase PLK1 (Homo sapiens)        inhibition            %                  2.06
10  Fc1ccc(-c2ncn(C3CCNCC3)c2-c2ccnc(Oc3ccc4c(c3)OCO4)n2)cc1  Serine/threonine-protein kinase PLK1 (Homo sapiens)        inhibition            %                  4.77

Look up inhibition for this compound: NS(=O)(=O)c1ccc(Nc2cc(-c3ccc(O)c(F)c3)n[nH]2)cc1
-1.16

* * *

What inhibition was measured for each of the following?
# System: Epidermal growth factor receptor (Homo sapiens), P00533 [L858R]
# Sequence (P00533 whole entry L858R): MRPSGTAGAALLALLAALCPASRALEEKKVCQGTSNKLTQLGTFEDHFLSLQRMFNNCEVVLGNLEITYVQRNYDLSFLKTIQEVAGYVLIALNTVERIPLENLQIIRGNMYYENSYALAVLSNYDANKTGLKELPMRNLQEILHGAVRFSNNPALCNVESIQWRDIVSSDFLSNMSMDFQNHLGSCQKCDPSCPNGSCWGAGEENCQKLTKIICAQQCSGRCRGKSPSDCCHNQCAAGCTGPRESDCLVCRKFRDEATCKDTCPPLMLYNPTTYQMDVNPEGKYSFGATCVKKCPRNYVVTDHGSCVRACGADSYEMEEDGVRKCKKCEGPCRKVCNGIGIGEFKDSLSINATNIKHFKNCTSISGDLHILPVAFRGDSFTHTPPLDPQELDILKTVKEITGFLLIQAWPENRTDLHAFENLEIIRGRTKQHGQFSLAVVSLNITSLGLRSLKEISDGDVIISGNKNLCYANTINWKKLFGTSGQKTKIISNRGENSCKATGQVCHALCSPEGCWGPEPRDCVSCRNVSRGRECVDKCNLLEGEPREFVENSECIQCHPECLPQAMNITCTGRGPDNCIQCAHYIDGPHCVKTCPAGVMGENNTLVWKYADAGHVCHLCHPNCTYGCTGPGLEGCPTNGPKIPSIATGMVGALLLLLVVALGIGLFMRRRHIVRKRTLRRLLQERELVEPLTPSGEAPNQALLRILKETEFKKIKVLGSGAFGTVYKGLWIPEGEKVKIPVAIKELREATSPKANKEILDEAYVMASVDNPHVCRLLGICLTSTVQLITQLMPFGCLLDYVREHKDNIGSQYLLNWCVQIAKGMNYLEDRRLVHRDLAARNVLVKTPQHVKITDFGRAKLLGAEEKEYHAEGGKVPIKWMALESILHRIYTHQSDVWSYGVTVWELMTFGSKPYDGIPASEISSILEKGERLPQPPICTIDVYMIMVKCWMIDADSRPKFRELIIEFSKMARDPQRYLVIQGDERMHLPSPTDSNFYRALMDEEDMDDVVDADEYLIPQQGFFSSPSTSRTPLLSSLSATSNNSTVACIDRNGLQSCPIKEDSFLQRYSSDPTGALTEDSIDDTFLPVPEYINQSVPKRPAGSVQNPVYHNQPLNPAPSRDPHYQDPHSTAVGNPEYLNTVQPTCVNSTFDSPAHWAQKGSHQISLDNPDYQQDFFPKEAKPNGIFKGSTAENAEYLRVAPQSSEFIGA
# CONDITION INFO: at 1 µM
One number for each entry, in %.

In the examples that follow, each entry is paired with its recorded inhibition.
> print(dat)
                            chemical.smiles  observed.measurement
1        CNC(=O)c1cncc(/C=C/c2c(C)cccc2C)c1                  41.4
2     O=C(Nc1n[nH]c2nc(-c3ccco3)ccc12)C1CC1                  4.35
3  C[C@@H](Oc1cc(-n2cnc3ccc(OCC4CCN(C)CC4)cc32)sc1C(N)=O)c1ccccc1Cl                  19.8
4  CCS(=O)(=O)c1ccc(OC)c(Nc2ncc(-c3cccc(-c4ccccc4F)c3)o2)c1                  62.1
5    Clc1ccc(CNc2nccc(-c3cnn4ncccc34)n2)cc1                   5.2
6  COc1ccc2ncn(-c3cc(O[C@H](C)c4ccccc4Cl)c(C(N)=O)s3)c2c1                  6.08

Below are 5 compounds. Give each one its inhibition.
1. CS(=O)(=O)CCNCc1cc(-c2cc3c(Nc4ccc(OCc5cccc(F)c5)c(Cl)c4)ncnc3s2)cs1
2. NC(=O)Cc1ccccc1Oc1nccc(-c2c(-c3ccc(F)cc3)ncn2C2CCNCC2)n1
3. COc1ccc(C2=C(N3CCc4ccccc43)C(=O)NC2=O)cc1
4. CN(c1ccc(NC(=O)Nc2c(Cl)cccc2Cl)cc1)c1ccnc(Nc2cccc(CS(C)(=O)=O)c2)n1
5. c1ccc(Oc2ccc(Nc3ncc(-c4ccccc4)o3)cc2)cc1

[61.2, 8.03, 7.13, 8.57, 0.93]

Below are 3 compounds. Give each one its inhibition.
1. NC(=O)c1cc(-c2ccc(F)cc2)cc(-c2ccncc2)c1N
2. NC(=O)c1ccc(Oc2nccc(-c3c(-c4ccc(F)cc4)ncn3C3CCNCC3)n2)cc1
3. CCc1ccc(Oc2nccc(-c3c(-c4ccc(F)cc4)ncn3C3CCNCC3)n2)cc1

1: 7.27; 2: 2.9; 3: 15.9

Below are 4 compounds. Give each one its inhibition.
1. O=C(Nc1n[nH]c2cc(-c3cc(F)ccc3F)ccc12)C1CC1
2. O=C1Nc2ccccc2/C1=C/Nc1ccc(-n2cncn2)cc1
3. Fc1ccc(-c2ncn(CCCN3CCOCC3)c2-c2ccncc2)cc1
4. CCc1cccc(CC)c1/C=C/c1cncc(C(=O)NC)c1

[3.64, 4.05, -2.87, 3.92]

Below are 3 compounds. Give each one its inhibition.
1. NCc1ccc(-n2c(-c3nonc3N)nc3cnccc32)cc1
2. COc1cccc(/C=N/Nc2ncnc3c2cnn3-c2cccc(OC)c2)c1
3. Fc1ccc(-c2ncn(C3CCNCC3)c2-c2ccnc(Oc3ccc(Oc4ccccc4)cc3)n2)cc1

1.55
8.79
11.3
